System: pigweed
assay summary: Test C pre-/postemergence herbicide test
Type: in vivo, Amaranthus retroflexus
condition details: Preemergence, 62 g ai/ha; scale 0 to 100 (0 no effect, 100 complete control)
Flag rule - Pigweed plant response rating less than 20 flags true; the remaining entries get false.

[[record]]
molecule = "O=C1NCC(c2cccc(OC(F)F)c2)C1C(=O)Nc1cccc(F)c1F (stereo not drawn)"
assigned_class = "false"

[[record]]
molecule = "O=C1NCC(c2ccc(C(F)(F)F)cc2)C1C(=O)Nc1cccc(F)c1F (racemic)"
assigned_class = "false"

[[record]]
molecule = "CN1CC(c2cccc(C(F)(F)F)c2)C(C(=O)Nc2cccc(F)c2F)C1=O (stereo not drawn)"
assigned_class = "false"

[[record]]
molecule = "O=C1NCC(c2cccc(OC(F)F)c2)C1C(=O)Nc1ccccc1F (stereo not drawn)"
assigned_class = "false"

[[record]]
molecule = "O=C1NCC(c2cc(F)cc(F)c2)C1C(=O)Nc1ccccc1Cl (racemic)"
assigned_class = "true"

[[record]]
molecule = "O=C1NCC(c2ccc(C(F)(F)F)cc2)C1C(=O)Nc1ccccc1F (stereo not drawn)"
assigned_class = "false"

[[record]]
molecule = "CN1CC(c2ccc(C(F)(F)F)cc2)C(C(=O)Nc2cccc(F)c2F)C1=O (stereo not drawn)"
assigned_class = "false"

[[record]]
molecule = "O=C1NCC(c2cccc(Br)c2)C1C(=O)Nc1ccc(F)c(F)c1F (stereo not drawn)"
assigned_class = "true"

[[record]]
molecule = "O=C1NCC(c2ccc(OC(F)F)cc2)C1C(=O)Nc1cccc(F)c1F (racemic)"
assigned_class = "true"

